MEASURED TARGET: saCAT1 (chloramphenicol acetyltransferase type A, S. aureus) (Staphylococcus aureus)
Sequence (P00485 whole entry): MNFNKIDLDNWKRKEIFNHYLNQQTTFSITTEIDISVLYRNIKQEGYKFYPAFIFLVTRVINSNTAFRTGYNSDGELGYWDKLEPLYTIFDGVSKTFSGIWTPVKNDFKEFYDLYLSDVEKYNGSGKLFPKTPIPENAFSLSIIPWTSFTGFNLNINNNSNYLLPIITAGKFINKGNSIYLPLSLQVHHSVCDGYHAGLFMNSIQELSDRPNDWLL
EXPERIMENTAL READOUT: Ki (µM)
Answer in µM, number only, no unit symbol.

Kindly note the recorded Ki for CC(=O)O[C@H]1C[C@@]2(C)[C@@H](C[C@@H](O)[C@H]3[C@@]4(C)CC[C@@H](O)[C@@H](C)[C@@H]4CC[C@@]32C)/C1=C(\CCC=C(C)C)C(=O)O [FA, fusidic acid] , which is 83.7
